Recorded relative viability by entry
System: NCI-H2023
testMethodNotes: relative viability (nuclei count vs DMSO), 5 days (fraction); higher = more cells survive
conditionsUsed: first compound 0.006325 µM
No unit in the answer, only the number.

Here's what some known entries look like.
CC(=O)O[C@@]12CO[C@@H]1C[C@H](O)[C@@]1(C)C(=O)[C@H](O)C3=C(C)[C@@H](OC(=O)[C@H](O)[C@@H](NC(=O)OC(C)(C)C)c4ccccc4)C[C@@](O)([C@@H](OC(=O)c4ccccc4)[C@H]21)C3(C)C [Docetaxel] + COc1cccc2cc(-c3nc([C@H]4CC[C@H](C(=O)O)CC4)n4ncnc(N)c34)[nH]c12 [OSI-027] (partner 0.5 µM)
0.0963
CC(=O)O[C@@]12CO[C@@H]1C[C@H](O)[C@@]1(C)C(=O)[C@H](O)C3=C(C)[C@@H](OC(=O)[C@H](O)[C@@H](NC(=O)OC(C)(C)C)c4ccccc4)C[C@@](O)([C@@H](OC(=O)c4ccccc4)[C@H]21)C3(C)C [Docetaxel] + Nc1nc2[nH]cc(CCc3ccc(C(=O)N[C@@H](CCC(=O)O)C(=O)O)cc3)c2c(=O)[nH]1 [Pemetrexed] (partner 0.2 µM)
0.124

Now look at this one.
Q: What value of relative viability has been recorded for this entry: CC(=O)O[C@@]12CO[C@@H]1C[C@H](O)[C@@]1(C)C(=O)[C@H](O)C3=C(C)[C@@H](OC(=O)[C@H](O)[C@@H](NC(=O)OC(C)(C)C)c4ccccc4)C[C@@](O)([C@@H](OC(=O)c4ccccc4)[C@H]21)C3(C)C [Docetaxel] + Cc1cc(Nc2cc(N3CCN(C)CC3)nc(Sc3ccc(NC(=O)C4CC4)cc3)n2)n[nH]1 [Tozasertib] (partner 0.1 µM)
Result: 0.158

---

Recorded relative viability by entry
System: NCI-H520
testMethodNotes: relative viability (nuclei count vs DMSO), 5 days (fraction); higher = more cells survive
conditionsUsed: first compound 15.81 µM
No unit in the answer, only the number.

Here's what some known entries look like.
O=C(O)CCCCC(CCSCc1ccccc1)SCc1ccccc1 (stereo unspecified) [CPI-613] + CC(C)C[C@H](NC(=O)[C@H](Cc1ccccc1)NC(=O)c1cnccn1)B(O)O [Bortezomib] (partner 0.002 µM)
0.421
O=C(O)CCCCC(CCSCc1ccccc1)SCc1ccccc1 (stereo unspecified) [CPI-613] + O=C(CCCCCCC(=O)Nc1ccccc1)NO [Vorinostat] (partner 1 µM)
0.693

Q: What value of relative viability has been recorded for this entry: O=C(O)CCCCC(CCSCc1ccccc1)SCc1ccccc1 (stereo unspecified) [CPI-613] + CS(=O)(=O)CCNCc1ccc(-c2ccc3ncnc(Nc4ccc(OCc5cccc(F)c5)c(Cl)c4)c3c2)o1 [Lapatinib] (partner 2 µM)
Result: 0.634

Q: What value of relative viability has been recorded for this entry: O=C(O)CCCCC(CCSCc1ccccc1)SCc1ccccc1 (stereo unspecified) [CPI-613] + C[C@]1(O)C[C@@H](c2nc(-c3ccc4ccc(-c5ccccc5)nc4c3)c3c(N)nccn32)C1 [Linsitinib] (partner 1 µM)
Result: 1.09

Q: What value of relative viability has been recorded for this entry: O=C(O)CCCCC(CCSCc1ccccc1)SCc1ccccc1 (stereo unspecified) [CPI-613] + CC(=O)Nc1cccc(-n2c(=O)n(C3CC3)c(=O)c3c(Nc4ccc(I)cc4F)n(C)c(=O)c(C)c32)c1 [Trametinib] (partner 0.02 µM)
Result: 0.708

Q: What value of relative viability has been recorded for this entry: O=C(O)CCCCC(CCSCc1ccccc1)SCc1ccccc1 (stereo unspecified) [CPI-613] + N=C(N)NC(=N)NCCc1ccccc1 [Phenformin] (partner 250 µM)
Result: 0.433

---

Test system: NCI-H460
testMethodNotes: relative viability (nuclei count vs DMSO), 5 days (fraction); higher = more cells survive
conditionsUsed: first compound 0.08 µM
readoutKind: relative viability
No unit in the answer, only the number.

O=c1[nH]c2ccccc2n1C1CCN(CCCC(c2ccc(F)cc2)c2ccc(F)cc2)CC1 [Pimozide] + CC(=O)Nc1cccc(-n2c(=O)n(C3CC3)c(=O)c3c(Nc4ccc(I)cc4F)n(C)c(=O)c(C)c32)c1 [Trametinib] (partner 0.02 µM)
0.239
O=c1[nH]c2ccccc2n1C1CCN(CCCC(c2ccc(F)cc2)c2ccc(F)cc2)CC1 [Pimozide] + COc1cc2c(Oc3ccc(NC(=O)C4(C(=O)Nc5ccc(F)cc5)CC4)cc3F)ccnc2cc1OCCCN1CCOCC1 [Foretinib] (partner 0.25 µM)
0.973

Q: Provide the documented relative viability with NCI-H460 as the system for O=c1[nH]c2ccccc2n1C1CCN(CCCC(c2ccc(F)cc2)c2ccc(F)cc2)CC1 [Pimozide] + CC1(C)CCC(c2ccc(Cl)cc2)=C(CN2CCN(c3ccc(C(=O)NS(=O)(=O)c4ccc(N[C@H](CCN5CCOCC5)CSc5ccccc5)c(S(=O)(=O)C(F)(F)F)c4)cc3)CC2)C1 [Navitoclax] (partner 0.5 µM)
Result: 1.19

Q: Provide the documented relative viability with NCI-H460 as the system for Cc1cnc(-c2cnc(NCCNc3ccc(C#N)cn3)nc2-c2ccc(Cl)cc2Cl)[nH]1 + O=C(c1cc(Cc2n[nH]c(=O)c3ccccc23)ccc1F)N1CCN(C(=O)C2CC2)CC1 [Olaparib] (partner 8 µM)
Result: 0.323

---

Recorded relative viability by entry
Tested on: NCI-H2126
testMethodNotes: relative viability (nuclei count vs DMSO), 5 days (fraction); higher = more cells survive
conditionsUsed: first compound 0.4 µM
No unit in the answer, only the number.

Here's what some known entries look like.
Cc1sc2c(c1C)C(c1ccc(Cl)cc1)=N[C@@H](CC(=O)OC(C)(C)C)c1nnc(C)n1-2 [JQ1] + CS(=O)(=O)CCNCc1ccc(-c2ccc3ncnc(Nc4ccc(OCc5cccc(F)c5)c(Cl)c4)c3c2)o1 [Lapatinib] (partner 2 µM)
0.755
Cc1sc2c(c1C)C(c1ccc(Cl)cc1)=N[C@@H](CC(=O)OC(C)(C)C)c1nnc(C)n1-2 [JQ1] + C[C@]1(O)C[C@@H](c2nc(-c3ccc4ccc(-c5ccccc5)nc4c3)c3c(N)nccn32)C1 [Linsitinib] (partner 1 µM)
0.651
Cc1sc2c(c1C)C(c1ccc(Cl)cc1)=N[C@@H](CC(=O)OC(C)(C)C)c1nnc(C)n1-2 [JQ1] + N=C(N)NC(=N)NCCc1ccccc1 [Phenformin] (partner 250 µM)
0.489
Cc1sc2c(c1C)C(c1ccc(Cl)cc1)=N[C@@H](CC(=O)OC(C)(C)C)c1nnc(C)n1-2 [JQ1] + CC(=O)c1c(C)c2cnc(Nc3ccc(N4CCNCC4)cn3)nc2n(C2CCCC2)c1=O [Palbociclib] (partner 0.5 µM)
0.368
Cc1sc2c(c1C)C(c1ccc(Cl)cc1)=N[C@@H](CC(=O)OC(C)(C)C)c1nnc(C)n1-2 [JQ1] + CC(C)C[C@H](NC(=O)[C@H](Cc1ccccc1)NC(=O)c1cnccn1)B(O)O [Bortezomib] (partner 0.002 µM)
1.14

Q: What value of relative viability has been recorded for this entry: Cc1sc2c(c1C)C(c1ccc(Cl)cc1)=N[C@@H](CC(=O)OC(C)(C)C)c1nnc(C)n1-2 [JQ1] + O=C(CCCCCCC(=O)Nc1ccccc1)NO [Vorinostat] (partner 1 µM)
Result: 0.583

Q: What value of relative viability has been recorded for this entry: Cc1sc2c(c1C)C(c1ccc(Cl)cc1)=N[C@@H](CC(=O)OC(C)(C)C)c1nnc(C)n1-2 [JQ1] + Cc1nc(NC(=O)N2CCC[C@H]2C(N)=O)sc1-c1ccnc(C(C)(C)C(F)(F)F)c1 [Alpelisib] (partner 2 µM)
Result: 0.681

Q: What value of relative viability has been recorded for this entry: Cc1sc2c(c1C)C(c1ccc(Cl)cc1)=N[C@@H](CC(=O)OC(C)(C)C)c1nnc(C)n1-2 [JQ1] + COc1cc2c(Oc3ccc(NC(=O)C4(C(=O)Nc5ccc(F)cc5)CC4)cc3F)ccnc2cc1OCCCN1CCOCC1 [Foretinib] (partner 0.25 µM)
Result: 1.03

Q: What value of relative viability has been recorded for this entry: Cc1sc2c(c1C)C(c1ccc(Cl)cc1)=N[C@@H](CC(=O)OC(C)(C)C)c1nnc(C)n1-2 [JQ1] + O=C(c1cc(Cc2n[nH]c(=O)c3ccccc23)ccc1F)N1CCN(C(=O)C2CC2)CC1 [Olaparib] (partner 8 µM)
Result: 0.951

Q: What value of relative viability has been recorded for this entry: Cc1sc2c(c1C)C(c1ccc(Cl)cc1)=N[C@@H](CC(=O)OC(C)(C)C)c1nnc(C)n1-2 [JQ1] + CCNC(=O)c1noc(-c2cc(C(C)C)c(O)cc2O)c1-c1ccc(CN2CCOCC2)cc1 [Luminespib] (partner 0.01 µM)
Result: 0.977

---

Recorded relative viability by entry
Test system: NCI-H2170
testMethodNotes: relative viability (nuclei count vs DMSO), 5 days (fraction); higher = more cells survive
conditionsUsed: first compound 4 µM

Here's what some known entries look like.
Cc1sc2c(c1C)C(c1ccc(Cl)cc1)=N[C@@H](CC(=O)OC(C)(C)C)c1nnc(C)n1-2 [JQ1] + C[C@@H](Oc1cc(-c2cnn(C3CCNCC3)c2)cnc1N)c1c(Cl)ccc(F)c1Cl [Crizotinib] (partner 1 µM)
0.517
Cc1sc2c(c1C)C(c1ccc(Cl)cc1)=N[C@@H](CC(=O)OC(C)(C)C)c1nnc(C)n1-2 [JQ1] + Nc1nc2[nH]cc(CCc3ccc(C(=O)N[C@@H](CCC(=O)O)C(=O)O)cc3)c2c(=O)[nH]1 [Pemetrexed] (partner 0.2 µM)
0.194
Cc1sc2c(c1C)C(c1ccc(Cl)cc1)=N[C@@H](CC(=O)OC(C)(C)C)c1nnc(C)n1-2 [JQ1] + Nc1ncn([C@H]2C[C@H](O)[C@@H](CO)O2)c(=O)n1 [Decitabine] (partner 2 µM)
0.255
Cc1sc2c(c1C)C(c1ccc(Cl)cc1)=N[C@@H](CC(=O)OC(C)(C)C)c1nnc(C)n1-2 [JQ1] + Cc1nc(NC(=O)N2CCC[C@H]2C(N)=O)sc1-c1ccnc(C(C)(C)C(F)(F)F)c1 [Alpelisib] (partner 2 µM)
0.34

Now look at this one.
Q: What value of relative viability has been recorded for this entry: Cc1sc2c(c1C)C(c1ccc(Cl)cc1)=N[C@@H](CC(=O)OC(C)(C)C)c1nnc(C)n1-2 [JQ1] + COc1cccc2cc(-c3nc([C@H]4CC[C@H](C(=O)O)CC4)n4ncnc(N)c34)[nH]c12 [OSI-027] (partner 0.5 µM)
Result: 0.362
